target: T1, human LAP-TGFB1 Fc fusion (human); assay: SPR, antigen-Fc captured, Fab analyte
T1 construct: also called human LAP-TGFβ1-Fc; human LAP-TGFβ-Fc isoform 1
T1 sequence (chain, as listed by the source limits assumed): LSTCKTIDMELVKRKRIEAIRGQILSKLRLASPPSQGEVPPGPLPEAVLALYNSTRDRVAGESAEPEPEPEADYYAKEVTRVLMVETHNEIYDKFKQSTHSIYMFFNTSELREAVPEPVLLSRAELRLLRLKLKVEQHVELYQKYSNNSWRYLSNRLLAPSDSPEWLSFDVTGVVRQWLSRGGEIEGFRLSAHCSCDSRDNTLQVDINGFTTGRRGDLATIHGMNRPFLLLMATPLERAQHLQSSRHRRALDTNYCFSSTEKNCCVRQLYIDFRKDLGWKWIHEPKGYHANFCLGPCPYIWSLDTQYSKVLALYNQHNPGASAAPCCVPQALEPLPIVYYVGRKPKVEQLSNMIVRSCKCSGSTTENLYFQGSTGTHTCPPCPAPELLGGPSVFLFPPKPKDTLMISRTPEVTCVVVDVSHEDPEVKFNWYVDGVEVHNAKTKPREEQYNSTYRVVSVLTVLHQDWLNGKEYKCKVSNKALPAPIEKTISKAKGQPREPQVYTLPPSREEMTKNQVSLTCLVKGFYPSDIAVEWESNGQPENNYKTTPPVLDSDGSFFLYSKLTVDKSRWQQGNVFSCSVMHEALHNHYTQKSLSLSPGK
measuredMetric: koff (s⁻¹)
Answers are plain numbers, in s⁻¹.

80BJN (Fab, V domains shown, also called VH W33D K59R Y104Q / VL T30Y R53I (80BJN)) VH: EVQLVQSGAEVKKPGASVKVSCKASGYTFTSYDMHWVRQAPGQGLEWMGRIDPQSGGIRYAQKFQGRATLTVDTSTSTAYMELSRLRSDDTAVYYCARWDYGGQFDVWGQGTLVTVSS VL: DIQMTQSPSSLSASVGDRVTITCRASQDIYNYLNWYQQKPGKAVKLLIYYTSILHSGVPSRFSGSGSGTDYTLTISSLQPEDFATYFCQQGDTLPWTFGQGTKLEIKR; 2.52e-05
20E6 Fab (80BGJ/85BIT) (Fab, V domains shown, also called 20E6 (80BGJ); 20E6 (85BIT)) VH: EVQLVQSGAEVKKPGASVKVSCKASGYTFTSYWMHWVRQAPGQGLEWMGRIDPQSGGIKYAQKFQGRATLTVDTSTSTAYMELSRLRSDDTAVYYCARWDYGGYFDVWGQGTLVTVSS VL: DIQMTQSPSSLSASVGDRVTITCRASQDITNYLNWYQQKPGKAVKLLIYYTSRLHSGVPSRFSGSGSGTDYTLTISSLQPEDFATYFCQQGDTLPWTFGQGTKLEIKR; 0.0769

Qu. Item 69BJN (Fab, V domains shown, also called VH W33D I58T / VL T30Y R53V (69BJN)) VH: EVQLVQSGAEVKKPGASVKVSCKASGYTFTSYDMHWVRQAPGQGLEWMGRIDPQSGGTKYAQKFQGRATLTVDTSTSTAYMELSRLRSDDTAVYYCARWDYGGYFDVWGQGTLVTVSS VL: DIQMTQSPSSLSASVGDRVTITCRASQDIYNYLNWYQQKPGKAVKLLIYYTSVLHSGVPSRFSGSGSGTDYTLTISSLQPEDFATYFCQQGDTLPWTFGQGTKLEIKR has what recorded koff?
Ans. 0.000488
